- measurement-protocol: HepG2 cell cytotoxicity, dose response, cytotoxicity control, plate reader, cherry-pick, antagonist series (AID 743416);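 further: 0% = neutral control wells and -100% = positive control wells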
- test-conditions: series mostly up to 26 µM
Measured potencies and affinities stand elsewhere. Active and inactive are the calls of the source. How the calls were made is not given here.
readout-kind: outcome

[[record]]
molecular_string = "O=C(CN1C(=O)c2ccccc2S1(=O)=O)c1ccc2c(c1)OCCCO2"
readout_kind = "outcome"
result_value = "inactive"

[[record]]
molecular_string = "COc1ccc(-c2cc(-c3ccccc3)no2)cc1"
readout_kind = "outcome"
result_value = "inactive"

[[record]]
molecular_string = "COc1cccc(C(=O)Nc2ccc3c(c2)OC[C@@H](C)N(CC2CC2)C[C@H](C)[C@H](OC)CN(C)C3=O)c1"
readout_kind = "outcome"
result_value = "inactive"

[[record]]
molecular_string = "Cc1cccc(-c2ccc([C@H]3[C@@H](CO)N4CCCCN(C(=O)c5ccncc5)C[C@@H]34)cc2)c1"
readout_kind = "outcome"
result_value = "inactive"

[[record]]
molecular_string = "Cc1ccc2nc(-c3ccc(NC(=O)COC(=O)c4ccco4)cc3)sc2c1"
readout_kind = "outcome"
result_value = "inactive"

[[record]]
molecular_string = "O=C(O)c1cccc(COc2ccc(CO)cc2Cl)c1"
readout_kind = "outcome"
result_value = "inactive"

[[record]]
molecular_string = "c1ccc(-n2cnnc2SCc2cn3cccnc3n2)cc1"
readout_kind = "outcome"
result_value = "inactive"

[[record]]
molecular_string = "Cc1ccccc1C(=O)Nc1ccc2c(c1)OCCO2"
readout_kind = "outcome"
result_value = "inactive"

[[record]]
molecular_string = "C[C@H](CO)N1C[C@H](C)[C@H](CN(C)C(=O)Nc2ccc(F)cc2)OCCCC[C@H](C)Oc2ccc(NC(=O)NC3CCCCC3)cc2C1=O"
readout_kind = "outcome"
result_value = "inactive"

[[record]]
molecular_string = "COCCCNc1ccn2nc(-c3ccccc3)cc2n1"
readout_kind = "outcome"
result_value = "inactive"


###

- tested-on: Pro-neuregulin-1, membrane-bound isoform (Homo sapiens) (UniProt Q02297)
- Sequence (Q02297 whole entry, looked up, canonical isoform): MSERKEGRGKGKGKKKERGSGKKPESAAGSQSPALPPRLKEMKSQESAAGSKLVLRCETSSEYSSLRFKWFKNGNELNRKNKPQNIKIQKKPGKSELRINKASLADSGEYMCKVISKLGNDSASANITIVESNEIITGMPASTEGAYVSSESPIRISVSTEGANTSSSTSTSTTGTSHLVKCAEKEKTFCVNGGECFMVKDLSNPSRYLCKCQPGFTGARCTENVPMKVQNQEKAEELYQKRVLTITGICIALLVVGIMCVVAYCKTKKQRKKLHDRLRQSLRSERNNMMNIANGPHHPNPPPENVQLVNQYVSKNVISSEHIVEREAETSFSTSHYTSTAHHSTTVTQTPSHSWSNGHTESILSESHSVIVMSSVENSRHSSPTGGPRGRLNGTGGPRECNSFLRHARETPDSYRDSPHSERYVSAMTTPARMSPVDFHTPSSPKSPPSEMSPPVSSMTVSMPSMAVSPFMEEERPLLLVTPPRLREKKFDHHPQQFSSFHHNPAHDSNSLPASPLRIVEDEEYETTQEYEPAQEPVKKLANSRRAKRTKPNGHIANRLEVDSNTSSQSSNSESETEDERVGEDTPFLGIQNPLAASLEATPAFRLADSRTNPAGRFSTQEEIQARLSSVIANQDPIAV
- measurement-protocol: NRG1 binders on small-molecule microarrays, primary screen, psychiatric disease protein project, biochemical, small-molecule microarray, fluorescence 635/667 (AID 1075);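 further: score combines 667 nm spot fluorescence with signal to noise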
- test-conditions: NRG1 binding, 635 nm fluorescence, higher = more signal
readout-kind: composite z-score

[[record]]
molecular_string = "CC(C)NC(=O)[C@@H]1c2ccccc2C(=O)N(Cc2cc(F)cc(C(F)(F)F)c2)[C@H]1c1ccc(CO)cc1"
readout_kind = "composite z-score"
result_value = 0.433

[[record]]
molecular_string = "Cc1ccc(S[C@]2(C(=O)NCCN3CCOCC3)CC(=O)N(Cc3cc(C(F)(F)F)cc(C(F)(F)F)c3)[C@@H]2c2ccc(CO)cc2)cc1"
readout_kind = "composite z-score"
result_value = 1.04

[[record]]
molecular_string = "Cc1ccc(N2C(=O)c3ccccc3[C@](C)(C(=O)NCC(F)(F)F)[C@@H]2c2ccc(CO)cc2)nc1"
readout_kind = "composite z-score"
result_value = 1.64

[[record]]
molecular_string = "C=C(C1=CCN(S(=O)(=O)c2ccc(C)cc2)C1)[C@@H](OC(C)=O)[C@@H]1CCCN1S(=O)(=O)c1ccccc1[N+](=O)[O-]"
readout_kind = "composite z-score"
result_value = -0.158


###

- tested-on: Calmodulin-1 (Homo sapiens) (UniProt P0DP23)
- measurement-protocol: CALM1 binders on microarrays, EGTA buffer, profiling panel, biochemical, small-molecule microarray, Cy5-labelled CALM1 (AID 1111);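 further: labelled calmodulin applied in Tris saline Tween buffer holding calcium plus EGTA and DTT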
- test-conditions: Cy5-CALM1 binding fluorescence, higher = more signal
readout-kind: composite z-score

[[record]]
molecule = "CC(C)(C)OC(=O)CC[C@@]1(C(=O)NCc2ccccc2)N=C(c2ccc(OCCCO)cc2)O[C@@H]1c1ccccc1CN=[N+]=[N-]"
tested_on = "Calmodulin-1 (Homo sapiens) (UniProt P0DP23)"
readout_kind = "composite z-score"
result_value = 1.61

[[record]]
molecule = "COCCCNC(=O)[C@@]1(Cc2ccccc2)N=C(c2ccc(OCCCO)cc2)O[C@H]1c1ccccc1N=[N+]=[N-]"
tested_on = "Calmodulin-1 (Homo sapiens) (UniProt P0DP23)"
readout_kind = "composite z-score"
result_value = 1.05

[[record]]
molecule = "CC(C)N1CC=CC23O[C@@H]4/C=C\\CCCOC(=O)C4[C@H]2C(=O)N(CCCO)[C@@H]3C1=O (some centres undefined)"
tested_on = "Calmodulin-1 (Homo sapiens) (UniProt P0DP23)"
readout_kind = "composite z-score"
result_value = -0.311

[[record]]
molecule = "C=CCN1C(=O)[C@@]2(O[C@@H](CCO)[C@H]([Si](C)(C)c3ccc(OC)cc3)[C@H]2C)c2cc(N(C=O)c3ccccc3)ccc21"
tested_on = "Calmodulin-1 (Homo sapiens) (UniProt P0DP23)"
readout_kind = "composite z-score"
result_value = 0.905

[[record]]
molecule = "COCCOC(=O)N1C(=O)[C@@]2(c3cc(C#CC4(O)CCCCCC4)ccc31)[C@H](c1ccccc1OCCO)N1[C@H](c3ccccc3)[C@H](c3ccccc3)OC(=O)[C@H]1[C@@H]2C(=O)Nc1nc2ccccc2s1"
tested_on = "Calmodulin-1 (Homo sapiens) (UniProt P0DP23)"
readout_kind = "composite z-score"
result_value = 1.59

[[record]]
molecule = "CN1C=C(C(=O)OCCS(C)(=O)=O)C(C(=O)OCCS(C)(=O)=O)=CC(CCCO)=CC1c1cccs1 (centres undefined)"
tested_on = "Calmodulin-1 (Homo sapiens) (UniProt P0DP23)"
readout_kind = "composite z-score"
result_value = -0.524

[[record]]
molecule = "CCCNC(=O)[C@@H]1c2ccccc2C(=O)N(Cc2cc(C(F)(F)F)cc(C(F)(F)F)c2)[C@H]1c1ccc(CO)cc1"
tested_on = "Calmodulin-1 (Homo sapiens) (UniProt P0DP23)"
readout_kind = "composite z-score"
result_value = 0.394

[[record]]
molecule = "COCCCNC(=O)[C@@]1(Cc2ccccc2CN=[N+]=[N-])COC(c2ccc(OCCCO)cc2)=N1"
tested_on = "Calmodulin-1 (Homo sapiens) (UniProt P0DP23)"
readout_kind = "composite z-score"
result_value = 1.78

[[record]]
molecule = "CCOC(=O)C[C@H]1[C@H](OC(=O)Cc2ccc3c(c2)OCO3)[C@@H](NC(=O)c2ccc3ccccc3c2)c2cc(OCCCO)ccc2N1C(=O)c1ccc2ccccc2n1"
tested_on = "Calmodulin-1 (Homo sapiens) (UniProt P0DP23)"
readout_kind = "composite z-score"
result_value = 1.05


All figures here come from PubChem BioAssay.
